- Test system: IGROV-1
- PROTOCOL DESCRIPTION: NCI tumour cell line growth inhibition, 48 h
Active and inactive are the calls of the source. Rule as the data show it: active = GI50 up to about 1.1 µM and inactive = higher.
// values below are reported GI50

- COMPOUND: "O=C1/C(=C/c2ccco2)N=C2Sc3c([nH]cnc3=O)N12"
  GI50: "> 100 µM (inactive)"
- COMPOUND: "O=[N+]([O-])c1c(Br)cc(Br)c2c1Nc1c(ccc(Cl)c1Cl)S2"
  GI50: "14.9 µM (inactive)"
- COMPOUND: "CC(=O)/N=C1/N(/C=C2\\C(=O)Oc3ccccc3C2=O)C(=O)/C(=C/c2ccccc2Cl)N1C"
  GI50: "> 100 µM (inactive)"
- COMPOUND: "CN(C)/C=N\\c1c(Br)cc(Br)c2nonc12"
  GI50: "> 100 µM (inactive)"
- COMPOUND: "c1ccc(-c2cnc3nc4ccccc4nc3n2)cc1"
  GI50: "3.31 µM (inactive)"
- COMPOUND: "Cc1c(N)nc(C(CC(N)=O)NCC(N)C(N)=O)nc1C(=O)NC(C(=O)NC(C)C(O)C(C)C(=O)NC(C(=O)NCCc1nc(-c2nc(C(=O)NCCCNCCCCN)cs2)cs1)C(C)O)C(OC1OC(CO)C(O)C(O)C1OC1OC(CO)C(O)C(OC(N)=O)C1O)c1c[nH]cn1 (centres undefined)"
  GI50: "> 10 µM (inactive)"
- COMPOUND: "O=C(/C=C/NC(=O)OCc1ccccc1)OCc1ccccc1"
  GI50: "> 100 µM (inactive)"
- COMPOUND: "COC(=O)CN(CC(=O)NCCNC(=O)OC(C)(C)C)C1CCCCC1N(CC(=O)OC)CC(=O)OC (centres undefined)"
  GI50: "> 100 µM (inactive)"
- COMPOUND: "CCOc1c(OC)cc(CNNc2nccs2)cc1OC"
  GI50: "> 100 µM (inactive)"

###

- Test system: EKVX
- PROTOCOL DESCRIPTION: NCI tumour cell line growth inhibition, 48 h
Calls of active or inactive are those of the source. Rule as the data show it: active = GI50 up to about 1.1 µM and inactive = higher.
Classes used: yes = active, no = inactive

- MOLECULE: "Cn1cc(C(=O)C[n+]2ccccc2)c2ccccc21"
  ASSIGNED LABEL: "no"
- MOLECULE: "Cc1c(-c2cnccn2)ssc1=S [OLTIPRAZ]"
  ASSIGNED LABEL: "no"
- MOLECULE: "O=C1Nc2cc(Cl)ccc2C(=O)N2CCC[C@@H]12"
  ASSIGNED LABEL: "no"
- MOLECULE: "O=C(c1ccccc1)C1OC12C(=O)Nc1c(Cl)cc(Cl)cc12 (stereo unspecified)"
  ASSIGNED LABEL: "no"
- MOLECULE: "COc1ccc(/C=N/NC(=O)c2ccccc2Nc2ccccc2C(=O)N/N=C/c2ccc(OC)cc2)cc1"
  ASSIGNED LABEL: "no"
- MOLECULE: "O=[N+]([O-])c1c(Br)cc(Br)c2c1Nc1c(ccc(Cl)c1Cl)S2"
  ASSIGNED LABEL: "no"
- MOLECULE: "CCOC(=O)Cn1c(=O)[nH]c(=O)c2c1ncn2Cc1ccccc1"
  ASSIGNED LABEL: "no"
- MOLECULE: "O=S1(=O)OCCOS(=O)(=O)C1(F)Br"
  ASSIGNED LABEL: "no"
- MOLECULE: "COc1ccc2nc(/C(N)=C\\C#N)ccc2c1"
  ASSIGNED LABEL: "yes"
- MOLECULE: "C=CCN1C(=O)/C(=C/c2ccc(C)cc2)N=C1SC/C=C/C"
  ASSIGNED LABEL: "no"
- MOLECULE: "Cc1nc(-c2cccnc2)sc1C(=O)/C=C/c1cccc([N+](=O)[O-])c1"
  ASSIGNED LABEL: "no"

Origin of the recorded values: ChEMBL document CHEMBL1201862
